# testedSystem: Histone-lysine N-methyltransferase EZH1 (Homo sapiens, UniProt Q92800)
# Sequence (Q92800 whole entry): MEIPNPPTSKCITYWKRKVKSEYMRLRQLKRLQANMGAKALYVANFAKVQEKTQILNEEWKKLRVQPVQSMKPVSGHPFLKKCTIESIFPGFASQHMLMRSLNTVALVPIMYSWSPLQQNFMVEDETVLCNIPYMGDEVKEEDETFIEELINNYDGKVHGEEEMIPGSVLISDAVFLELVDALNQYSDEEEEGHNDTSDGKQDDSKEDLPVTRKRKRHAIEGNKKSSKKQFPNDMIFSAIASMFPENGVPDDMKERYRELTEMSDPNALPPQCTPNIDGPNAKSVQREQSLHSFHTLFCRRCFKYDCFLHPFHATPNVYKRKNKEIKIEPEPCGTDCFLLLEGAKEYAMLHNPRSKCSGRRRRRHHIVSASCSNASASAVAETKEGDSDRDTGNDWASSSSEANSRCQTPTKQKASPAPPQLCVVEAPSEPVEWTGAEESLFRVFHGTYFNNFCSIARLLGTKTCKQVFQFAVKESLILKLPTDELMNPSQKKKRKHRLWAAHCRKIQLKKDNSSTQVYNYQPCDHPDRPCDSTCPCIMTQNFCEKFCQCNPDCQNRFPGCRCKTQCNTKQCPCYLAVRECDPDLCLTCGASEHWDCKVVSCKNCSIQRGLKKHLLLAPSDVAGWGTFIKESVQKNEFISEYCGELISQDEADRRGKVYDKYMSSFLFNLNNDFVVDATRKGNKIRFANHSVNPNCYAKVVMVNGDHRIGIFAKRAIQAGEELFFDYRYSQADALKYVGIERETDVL

- compound: "COc1cc(C)[nH]c(=O)c1CNC(=O)c1c(C)n([C@H](C)C2CCN(CC(F)(F)F)CC2)c2ccccc12 [CPI-1205]"
  testedSystem: "Histone-lysine N-methyltransferase EZH1 (Homo sapiens, UniProt Q92800)"
  IC50, nM: 52
